# Test system: RAW-Dual
# MEASUREMENT_DESCRIPTION: NF-kB SEAP reporter activity, fold change vs agonist alone; cytotoxicity flag (confluency mask): cytotoxic (confluency <70% of control); higher = enhanced NF-kB activity
# CONDITION_INFO: agonist: ODN 1826 (TLR9) 0.5 ug/mL
Over roughly 2,900 compounds, “NF-kB SEAP reporter activity, fold change vs agonist alone” has its median near 0.99; the highest 2% begin near 2.6. This is one part of a sample in which the highest values are shown more often than they occur.
Outcome label depends on NF-kB SEAP reporter activity relative to 0.7: at/above gives yes (1), below gives no (0).

MOLECULE	GROUP_LABEL
Nc1ncnc2c1c(I)cn2C1OC(CO)C(O)C1O (stereo not drawn) (library stock concentration (final ~1000-fold dilution): 10 mM)	no (0)
CN1CCN(C2CCN(C(=O)Nc3cc(Oc4ccc(NC(=O)C5(C(=O)Nc6ccc(F)cc6)CC5)c(F)c4)ccn3)CC2)CC1 (library stock concentration (final ~1000-fold dilution): 10 mM)	yes (1)
COS(=O)(=O)[O-].COc1cccc2c1nc1ccccc1[n+]2C (library stock concentration (final ~1000-fold dilution): 10 mM)	yes (1)
CN(C)CCC=C1c2ccccc2C(C)(C)c2ccccc21.Cl (library stock concentration (final ~1000-fold dilution): 10 mM)	yes (1)
COc1ccc2cc1Oc1ccc(cc1)CC1c3c(cc4c(c3Oc3cc5c(cc3OC)CCN(C)C5C2)OCO4)CCN1C (stereo not drawn) (library stock concentration (final ~1000-fold dilution): 10 mM)	no (0)
CS(=O)(=O)O.Fc1ccc(C2CCNCC2COc2ccc3c(c2)OCO3)cc1 (stereo not drawn) (library stock concentration (final ~1000-fold dilution): 10 mM)	no (0)

---

Measured NF-kB SEAP reporter activity accompanies every entry in the list below.
# Test system: RAW-Dual
# MEASUREMENT_DESCRIPTION: NF-kB SEAP reporter activity, fold change vs agonist alone; cytotoxicity flag (confluency mask): not cytotoxic; higher = enhanced NF-kB activity
# CONDITION_INFO: agonist: LPS (TLR4) 0.1 ug/mL
Whole data set: some 2,900 compounds, median “NF-kB SEAP reporter activity, fold change vs agonist alone” near 0.99, cut for the highest 2% near 2.6. This is one part of a sample in which the highest values are shown more often than they occur.
READOUT_LABEL: NF-kB SEAP reporter activity

COMPOUND	READOUT_LABEL	NUMBER
CCNC1CC(C)S(=O)(=O)c2sc(S(N)(=O)=O)cc21.Cl (stereo not drawn) (library stock concentration (final ~1000-fold dilution): 10 mM water)	NF-kB SEAP reporter activity	1.49
O=C(c1ccccc1)C(O)O (library stock concentration (final ~1000-fold dilution): 10 mM)	NF-kB SEAP reporter activity	1.12
CC12CCC3C(CCC4C(C)(C(=O)O)CCCC34C)(CC1=O)C2 (stereo not drawn) (library stock concentration (final ~1000-fold dilution): 10 mM)	NF-kB SEAP reporter activity	1.41

---

Measured NF-kB SEAP reporter activity accompanies every entry in the list below.
# Tested on: RAW-Dual
# MEASUREMENT_DESCRIPTION: NF-kB SEAP reporter activity, fold change vs agonist alone; cytotoxicity flag (confluency mask): not cytotoxic; higher = enhanced NF-kB activity
# CONDITION_INFO: agonist: ODN 1826 (TLR9) 0.5 ug/mL
Whole data set: some 2,900 compounds, median “NF-kB SEAP reporter activity, fold change vs agonist alone” near 0.99, cut for the highest 2% near 2.6. The sample as a whole holds a higher share of the highest values than the screen did.

COMPOUND	NF-kB SEAP reporter activity
CCCCCCCCCCCC(CC1OC(=O)C1CCCCCC)OC(=O)C(CC(C)C)NC=O (stereo not drawn) (library stock concentration (final ~1000-fold dilution): 10 mM)	1.02
CC1(C)SC2CC(=O)N2C1C(=O)OCOC(=O)C1N2C(=O)C(NC(=O)C(N)c3ccccc3)C2S(=O)(=O)C1(C)C.Cc1ccc(S(=O)(=O)O)cc1 (stereo not drawn) (library stock concentration (final ~1000-fold dilution): 10 mM)	0.797
CS(=O)(=O)c1ccc(Oc2cc(F)cc(C#N)c2)c2c1C(O)C(F)(F)C2 (stereo not drawn) (library stock concentration (final ~1000-fold dilution): 10 mM)	1.35
